meta.source: patent US11174245B2

target: EGFR wt (Homo sapiens (Human)); test: Biochemical EGFR inhibition assay (TR-FRET, poly-GT substrate), EGFR wt; conditions: read-out: wt (5 μM ATP) IC50; 5 μM ATP
quantity_kind: IC50 (µM)
Lab book: enter the figure in µM, no units written.

Value lookup for IC50; key = O=C(/N=c1\[nH]c2ccccc2n1[C@H]1CC[C@@H](O)CC1)c1ccnc(-c2cccc(F)c2)c1 3.24

Value lookup for IC50; key = O=C(/N=c1\[nH]c2ccccc2n1[C@H]1CC[C@@H](O)CC1)c1ccnc(-c2cnn(C(F)F)c2)c1 0.231

Value lookup for IC50; key = Cc1cc(C(=O)/N=c2\[nH]c3ccc(CN4CCOCC4)cc3n2C2CCCCC2)cc(-c2cnn(C)c2)n1 2.05

Value lookup for IC50; key = Cc1cc(C(=O)/N=c2\[nH]c3ccccc3n2[C@@H]2C[C@H](O)C[C@H](O)C2)cc(-c2cnn(C)c2)n1 12.9

Value lookup for IC50; key = C#Cc1cc(C(=O)/N=c2\[nH]c3ccccc3n2[C@H]2CC[C@@H](O)CC2)cc(-c2cnn(C)c2)n1 2.97

Value lookup for IC50; key = Cn1cc(-c2cc(C(=O)/N=c3\[nH]c4ccccc4n3C3CCC[S+]([O-])C3)ccn2)cn1 (stereo not drawn) 2.86

Value lookup for IC50; key = Cn1cc(-c2cc(C(=O)/N=c3\[nH]c4cc(CCCO)ccc4n3CC(C)(C)O)ccn2)cn1 1.52

Value lookup for IC50; key = COc1ccccc1-c1cc(C(=O)/N=c2\[nH]c3ccccc3n2[C@@H]2CC[C@H](O)[C@H](O)C2)ccn1 0.11

Value lookup for IC50; key = Cc1cc(C(=O)/N=c2\[nH]c3ccc(CN4CCN(C)CC4)cc3n2C2CCCCC2)cc(-c2cnn(C)c2)n1 0.267

Value lookup for IC50; key = CNc1cc(C(=O)/N=c2\[nH]c3ccccc3n2[C@H]2CC[C@@H](O)CC2)cc(-c2cnn(C)c2)n1 8.38

Value lookup for IC50; key = COc1ccc(F)cc1-c1cc(C(=O)/N=c2\[nH]c3ccccc3n2[C@H]2CC[C@@H](O)CC2)ccn1 0.0704

Value lookup for IC50; key = COc1ccccc1-c1cc(C(=O)/N=c2\[nH]c3ccccc3n2[C@@H]2CC[C@H](O)[C@@H](O)C2)ccn1 0.0771

Value lookup for IC50; key = COc1c(C)cccc1-c1cc(C(=O)/N=c2\[nH]c3ccccc3n2[C@H]2CC[C@@H](O)CC2)ccn1 1.18

Value lookup for IC50; key = COc1ccncc1-c1cc(C(=O)/N=c2\[nH]c3ccccc3n2[C@H]2CC[C@@H](O)CC2)cc(C#N)n1 0.995

Value lookup for IC50; key = CC(=O)N1CCC(c2ccc3c(c2)[nH]/c(=N\C(=O)c2ccnc(-c4cnn(C)c4)c2)n3C2CCCC2)CC1 0.185

Value lookup for IC50; key = Cn1cc(-c2cc(C(=O)/N=c3\[nH]c4cc(CC#N)ccc4n3CC(C)(C)O)ccn2)cn1 1.52

Value lookup for IC50; key = CC(C)(O)Cn1/c(=N/C(=O)c2ccnc(-c3cccn4cnnc34)c2)[nH]c2ccccc21 14.7

Value lookup for IC50; key = Cn1cc(-c2cc(C(=O)/N=c3\[nH]c4ccccc4n3[C@H]3CCC[C@@H](O)C3)ccn2)cn1 [I-112] 0.777

Value lookup for IC50; key = Cn1cc(-c2cc(C(=O)/N=c3\[nH]c4cc(CN5CCOCC5)ccc4n3[C@H]3CC[C@@H](O)CC3)cc(F)n2)cn1 0.225

Value lookup for IC50; key = Cn1cc(-c2cc(C(=O)/N=c3\[nH]c4ccccc4n3[C@H]3CC[C@@H](O)CC3)cc(N)n2)cn1 0.249

Value lookup for IC50; key = CN(C)Cc1cccc(-c2cc(C(=O)/N=c3\[nH]c4ccccc4n3CC(C)(C)O)ccn2)c1 0.213

* * *

biological target: EGFR del19 T790M C797S protein in Ba/F3 cells (Homo sapiens, UniProt P00533, C797S/DEL746-750/T790M); assay: pEGFR assay (AlphaScreen Surefire, EGFR Tyr1068 phosphorylation); assay type: cell-based
Sequence (P00533 with tags, fused parts or gaps C797S/DEL746-750/T790M limits assumed): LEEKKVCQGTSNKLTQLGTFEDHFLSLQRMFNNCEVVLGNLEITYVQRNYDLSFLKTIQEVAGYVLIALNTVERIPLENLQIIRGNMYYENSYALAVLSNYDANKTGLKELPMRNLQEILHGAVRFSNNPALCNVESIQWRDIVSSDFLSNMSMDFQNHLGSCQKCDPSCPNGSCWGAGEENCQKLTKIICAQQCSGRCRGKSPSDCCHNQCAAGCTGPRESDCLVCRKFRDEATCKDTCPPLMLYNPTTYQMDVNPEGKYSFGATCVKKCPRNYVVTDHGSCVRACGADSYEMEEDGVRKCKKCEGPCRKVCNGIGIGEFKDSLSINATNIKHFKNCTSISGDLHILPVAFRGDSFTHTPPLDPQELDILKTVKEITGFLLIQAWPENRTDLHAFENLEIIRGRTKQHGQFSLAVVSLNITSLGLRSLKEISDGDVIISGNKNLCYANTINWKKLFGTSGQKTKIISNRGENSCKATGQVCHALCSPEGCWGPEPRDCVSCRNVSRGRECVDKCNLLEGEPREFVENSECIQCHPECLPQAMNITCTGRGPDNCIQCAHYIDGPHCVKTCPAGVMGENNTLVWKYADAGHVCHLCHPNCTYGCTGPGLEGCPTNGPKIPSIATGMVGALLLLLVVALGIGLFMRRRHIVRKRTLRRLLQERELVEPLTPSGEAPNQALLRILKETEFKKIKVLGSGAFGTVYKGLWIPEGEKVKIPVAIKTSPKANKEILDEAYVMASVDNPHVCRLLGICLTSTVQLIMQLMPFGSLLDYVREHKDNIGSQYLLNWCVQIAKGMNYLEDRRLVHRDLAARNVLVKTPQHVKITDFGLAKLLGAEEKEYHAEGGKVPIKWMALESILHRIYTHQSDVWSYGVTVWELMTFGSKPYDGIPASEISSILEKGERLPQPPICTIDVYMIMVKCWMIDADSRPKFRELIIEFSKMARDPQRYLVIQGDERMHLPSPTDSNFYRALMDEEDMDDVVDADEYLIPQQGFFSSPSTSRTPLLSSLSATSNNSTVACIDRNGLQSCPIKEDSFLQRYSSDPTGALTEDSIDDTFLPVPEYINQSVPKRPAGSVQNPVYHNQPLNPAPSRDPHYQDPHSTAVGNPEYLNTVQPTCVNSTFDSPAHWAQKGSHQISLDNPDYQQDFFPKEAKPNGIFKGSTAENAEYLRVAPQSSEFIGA
quantity_kind: IC50 (µM)
Lab book: enter the figure in µM, no units written.

Value lookup for IC50; key = Cc1cc(C(=O)/N=c2\[nH]c3ccc(CN4CCOCC4)cc3n2CC(C)(C)O)cc(-c2cnn(C)c2)n1 0.045

Value lookup for IC50; key = Cn1cc(-c2cc(C(=O)/N=c3\[nH]c4ccccc4n3[C@H]3CC[C@@H](O)CC3)cc(F)n2)cn1 0.001

Value lookup for IC50; key = COc1cnccc1-c1cc(C(=O)/N=c2\[nH]c3ccccc3n2[C@H]2CC[C@@H](O)CC2)ccn1 0.004

Value lookup for IC50; key = CN(C)Cc1ccc2c(c1)[nH]/c(=N\C(=O)c1ccnc(-c3cnn(C)c3)c1)n2CC(C)(C)O 0.058

Value lookup for IC50; key = COc1ccncc1-c1cc(C(=O)/N=c2\[nH]c3cc(C4CCN(C(C)=O)CC4)ccc3n2CC(C)(C)O)ccn1 0.001

Value lookup for IC50; key = Cn1cc(-c2cc(C(=O)/N=c3\[nH]c4ccccc4n3CCC(C)(C)O)ccn2)cn1 0.015

Value lookup for IC50; key = Cn1cc(-c2cc(C(=O)/N=c3\[nH]c4ccccc4n3[C@H]3CCC[C@@H](O)C3)ccn2)cn1 [I-112] 0.013

Value lookup for IC50; key = Cn1cnc2c(-c3cc(C(=O)/N=c4\[nH]c5ccccc5n4CC(C)(C)O)ccn3)cccc21 0.074

Value lookup for IC50; key = CC(C)(O)Cn1/c(=N/C(=O)c2ccnc(-c3cnccc3Cl)c2)[nH]c2ccccc21 0.055

Value lookup for IC50; key = CN1CCC(c2ccc3c(c2)[nH]/c(=N\C(=O)c2ccnc(-c4cnn(C)c4)c2)n3CC(C)(C)O)CC1 0.004

Value lookup for IC50; key = COc1ncccc1-c1cc(C(=O)/N=c2\[nH]c3ccccc3n2CC(C)(C)O)ccn1 0.02

Value lookup for IC50; key = COc1ccccc1-c1cc(C(=O)/N=c2\[nH]c3cc(CN4CCOCC4)ccc3n2[C@H]2CC[C@@H](O)CC2)ccn1 0.003

Value lookup for IC50; key = Cn1cc(-c2cc(C(=O)/N=c3\[nH]c4ccccc4n3[C@H]3COC[C@@H](O)C3)ccn2)cn1 0.044

Value lookup for IC50; key = Cn1cc(-c2cc(C(=O)/N=c3\[nH]c4cc(CN5CCOCC5)ccc4n3CC(C)(C)O)ccn2)cn1 0.093

Value lookup for IC50; key = CN1CCC(c2ccc3c(c2)[nH]/c(=N\C(=O)c2ccnc(-c4cnn(C)c4)c2)n3CC(C)(C)O)CC1=O (stereo not drawn) 0.079

Value lookup for IC50; key = Cn1cc(-c2cc(C(=O)/N=c3\[nH]c4ccccc4n3C3CCCC3)ccn2)cn1 0.029

Value lookup for IC50; key = Cc1cc2c(cc1N1CCCCC1)[nH]/c(=N\C(=O)c1ccnc(-c3cnn(C)c3)c1)n2CC(C)(C)O 0.094

Value lookup for IC50; key = Cc1cc(C(=O)/N=c2\[nH]c3ccc(N4CCN(C)CC4)cc3n2[C@H]2CC[C@@H](O)CC2)cc(-c2cnn(C)c2)n1 0.002

Value lookup for IC50; key = Cn1cc(-c2cc(C(=O)/N=c3\[nH]c4cc(NCCN5CCCC5)ccc4n3CC(C)(C)O)ccn2)cn1 0.014

Value lookup for IC50; key = Cn1cc(-c2cc(C(=O)/N=c3\[nH]c4cc(CN5CCOCC5)ccc4n3[C@H]3CC[C@@H](O)CC3)cc(F)n2)cn1 0.002

Value lookup for IC50; key = O=C(/N=c1\[nH]c2ccccc2n1[C@H]1CC[C@@H](O)CC1)c1ccnc(-n2ccnc2)c1 0.007

Value lookup for IC50; key = Cc1cc(C(=O)/N=c2\[nH]c3ccc(N4CCN(C)CC4)cc3n2C2CCCCC2)cc(-c2cnn(C)c2)n1 0.002

Value lookup for IC50; key = Cn1cc(-c2cc(C(=O)/N=c3\[nH]c4cc(C5CCOC5)ccc4n3CC(C)(C)O)ccn2)cn1 (stereo not drawn) 0.005

Value lookup for IC50; key = Cc1ccc2[nH]/c(=N\C(=O)c3ccnc(-c4cnn(C)c4)c3)n(CC(C)(C)O)c2c1 0.021

* * *

Biological target: EGFR wt (Homo sapiens (Human), UniProt P00533)
Sequence (P00533 25-1210): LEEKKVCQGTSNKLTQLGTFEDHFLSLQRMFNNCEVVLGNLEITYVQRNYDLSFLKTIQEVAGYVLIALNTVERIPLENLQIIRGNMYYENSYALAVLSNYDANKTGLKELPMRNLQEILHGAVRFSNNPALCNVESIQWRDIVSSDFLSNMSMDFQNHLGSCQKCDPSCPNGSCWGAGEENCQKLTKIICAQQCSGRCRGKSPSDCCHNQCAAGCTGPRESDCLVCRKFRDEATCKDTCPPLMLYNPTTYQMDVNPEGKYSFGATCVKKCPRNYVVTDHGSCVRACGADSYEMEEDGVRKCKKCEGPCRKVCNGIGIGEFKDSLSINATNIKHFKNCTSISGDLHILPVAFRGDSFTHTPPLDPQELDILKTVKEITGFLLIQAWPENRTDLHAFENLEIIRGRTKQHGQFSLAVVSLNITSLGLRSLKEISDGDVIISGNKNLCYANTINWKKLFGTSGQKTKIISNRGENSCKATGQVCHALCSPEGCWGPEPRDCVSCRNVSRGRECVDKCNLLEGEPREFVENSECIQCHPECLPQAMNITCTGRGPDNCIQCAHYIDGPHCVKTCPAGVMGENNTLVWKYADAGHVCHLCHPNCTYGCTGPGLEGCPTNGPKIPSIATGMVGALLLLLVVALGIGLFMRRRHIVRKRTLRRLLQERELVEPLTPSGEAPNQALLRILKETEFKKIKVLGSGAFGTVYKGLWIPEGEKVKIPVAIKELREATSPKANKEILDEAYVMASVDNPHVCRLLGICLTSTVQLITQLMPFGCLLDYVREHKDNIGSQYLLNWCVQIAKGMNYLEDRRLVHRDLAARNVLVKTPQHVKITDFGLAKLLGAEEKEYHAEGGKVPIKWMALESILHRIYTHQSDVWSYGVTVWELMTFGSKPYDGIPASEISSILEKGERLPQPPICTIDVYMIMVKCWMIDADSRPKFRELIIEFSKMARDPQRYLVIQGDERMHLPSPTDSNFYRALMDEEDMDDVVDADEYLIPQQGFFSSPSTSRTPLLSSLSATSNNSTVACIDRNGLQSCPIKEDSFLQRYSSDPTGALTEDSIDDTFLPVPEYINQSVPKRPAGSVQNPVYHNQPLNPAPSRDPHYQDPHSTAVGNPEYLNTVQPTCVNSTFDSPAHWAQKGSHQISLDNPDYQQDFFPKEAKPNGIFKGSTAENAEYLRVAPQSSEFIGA
Experiment: Biochemical EGFR inhibition assay (TR-FRET, poly-GT substrate), EGFR wt
Details: read-out: wt (5 μM ATP) IC50; 5 μM ATP
Experimental: Biochemical EGFR Inhibition Assays Initially, the inhibitory effect of compounds according to the invention is measured in biochemical assays which measure the phosphorylation activity of EGFR enzyme forms on poly-GT substrate in the presence of different concentrations of ATP (5 μM and 100 μM final assay concentration). […] These biochemical EGFR enzyme form compound dose-response assays quantify the kinase activity via phosphorylation of a tagged poly-GT substrate. […]
quantity_kind: IC50 (nM)
Lab book: enter the figure in nM, no units written.

Value lookup for IC50; key = Cc1cc(C(=O)/N=c2\[nH]c3ccc(C4CCN(C)CC4)cc3n2[C@H]2CC[C@@H](O)CC2)cc(-c2cnn(C)c2)n1 [I-225] 162

Value lookup for IC50; key = COc1ccccc1-c1cc(C(=O)/N=c2\[nH]c3cc(CN4CCOCC4)ccc3n2CC(C)(C)O)ccn1 [I-060] 65.6

Value lookup for IC50; key = Cn1cc(-c2cc(C(=O)/N=c3\[nH]c4ccccc4n3[C@H]3CC[C@@H](O)CC3)cc(CF)n2)cn1 [I-216] 2670
